Test: Volume of distribution in Beagle dog at 1 mg/kg, iv measured upto 24 hrs by LC-MS/MS analysis
Assay type: ADME, organism-based, Canis lupus familiaris
Conditions: in vivo, read-out: Vz
endpoint: Vd (L/kg)
Give bare numbers, in L/kg.

Enquiry: Supply Vd value. Item: C[C@@H](Nc1ccn2ncc(-c3cnn(CCO)c3)c2n1)c1cc(F)ccc1OCC(F)F
Return: 4.94

----------
Test: Cmax in Beagle dog at 1 mg/kg, iv measured upto 24 hrs by LC-MS/MS analysis
Assay type: ADME, organism-based, Canis lupus familiaris
Parameters: route intravenous, dose 1 mg/kg, time <=24
Settings: in vivo
endpoint: Cmax (ng/mL)
One number for each entry, in ng/mL.

Enquiry: Supply Cmax value. Item: C[C@@H](Nc1ccn2ncc(-c3cnn(CCO)c3)c2n1)c1cc(F)ccc1OCC(F)F
Return: 1500

----------
Test: Clearance in Sprague-Dawley rat at 1 mg/kg, iv measured upto 24 hrs by LC-MS/MS analysis
Type: ADME, organism-based
Conditions: in vivo
endpoint: clearance (mL/min/kg)
One number for each entry, in mL/min/kg.

Enquiry: Supply clearance value. Item: C[C@@H](Nc1ccn2ncc(-c3cnn(CCO)c3)c2n1)c1cc(F)ccc1OCC(F)F
Return: 83.3

----------
Test: Plasma protein binding in rat
Type: ADME, cell-free
Settings: read-out: PPB (converted)
endpoint: fraction unbound
Answers are plain numbers.

Enquiry: Supply fraction unbound value. Item: C[C@@H](Nc1ccn2ncc(-c3cnn(CCO)c3)c2n1)c1cc(F)ccc1OCC(F)F
Return: 0.121

----------
Assay: Oral bioavailability in Sprague-Dawley rat at 5 mg/kg measured upto 24 hrs by LC-MS/MS analysis
Type: ADME, organism-based
Conditions: in vivo
endpoint: bioavailability (%)
Answers are plain numbers, in %.

Enquiry: Supply bioavailability value. Item: C[C@@H](Nc1ccn2ncc(-c3cnn(CCO)c3)c2n1)c1cc(F)ccc1OCC(F)F
Return: 49

----------
Test: Clearance in Sprague-Dawley rat at 5 mg/kg, ig measured upto 24 hrs by LC-MS/MS analysis
Type: ADME, organism-based
Conditions: in vivo, po
endpoint: CL/F (mL/min/kg)
Answers are plain numbers, in mL/min/kg.

Enquiry: Supply CL/F value. Item: C[C@@H](Nc1ccn2ncc(-c3cnn(CCO)c3)c2n1)c1cc(F)ccc1OCC(F)F
Return: 158

----------
Biological target: NT-3 growth factor receptor (Homo sapiens, UniProt Q16288, G623R)
Sequence (Q16288 32-839 G623R limits assumed): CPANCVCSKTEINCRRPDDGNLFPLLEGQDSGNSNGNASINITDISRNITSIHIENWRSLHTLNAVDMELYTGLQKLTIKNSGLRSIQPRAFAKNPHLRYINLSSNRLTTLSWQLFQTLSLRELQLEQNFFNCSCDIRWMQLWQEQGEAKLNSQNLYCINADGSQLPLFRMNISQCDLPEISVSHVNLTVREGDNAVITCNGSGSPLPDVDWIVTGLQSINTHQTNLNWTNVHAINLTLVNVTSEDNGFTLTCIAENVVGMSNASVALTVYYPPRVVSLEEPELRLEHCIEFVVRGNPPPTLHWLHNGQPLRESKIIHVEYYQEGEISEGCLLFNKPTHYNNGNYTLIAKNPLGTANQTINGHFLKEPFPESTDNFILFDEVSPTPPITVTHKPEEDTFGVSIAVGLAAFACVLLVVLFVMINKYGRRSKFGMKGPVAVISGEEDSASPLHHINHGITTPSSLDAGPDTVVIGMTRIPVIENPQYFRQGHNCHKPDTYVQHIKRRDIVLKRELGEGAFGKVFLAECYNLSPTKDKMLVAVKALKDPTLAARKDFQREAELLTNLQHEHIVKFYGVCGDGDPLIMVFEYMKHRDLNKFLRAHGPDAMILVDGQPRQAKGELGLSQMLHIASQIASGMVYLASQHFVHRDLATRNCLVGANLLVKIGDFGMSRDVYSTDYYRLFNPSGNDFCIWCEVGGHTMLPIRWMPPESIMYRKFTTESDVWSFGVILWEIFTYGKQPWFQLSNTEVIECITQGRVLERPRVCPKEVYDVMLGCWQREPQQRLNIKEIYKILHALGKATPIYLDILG
endpoint: pIC50
One number for each entry, as −log10 of the molar value.

Enquiry: Supply pIC50 value. Item: C[C@@H](Nc1ccn2ncc(-c3cnn(CCO)c3)c2n1)c1cc(F)ccc1OCC(F)F
Return: 9.22

----------
Target: High affinity nerve growth factor receptor (Homo sapiens)
Sequence (P04629 whole entry): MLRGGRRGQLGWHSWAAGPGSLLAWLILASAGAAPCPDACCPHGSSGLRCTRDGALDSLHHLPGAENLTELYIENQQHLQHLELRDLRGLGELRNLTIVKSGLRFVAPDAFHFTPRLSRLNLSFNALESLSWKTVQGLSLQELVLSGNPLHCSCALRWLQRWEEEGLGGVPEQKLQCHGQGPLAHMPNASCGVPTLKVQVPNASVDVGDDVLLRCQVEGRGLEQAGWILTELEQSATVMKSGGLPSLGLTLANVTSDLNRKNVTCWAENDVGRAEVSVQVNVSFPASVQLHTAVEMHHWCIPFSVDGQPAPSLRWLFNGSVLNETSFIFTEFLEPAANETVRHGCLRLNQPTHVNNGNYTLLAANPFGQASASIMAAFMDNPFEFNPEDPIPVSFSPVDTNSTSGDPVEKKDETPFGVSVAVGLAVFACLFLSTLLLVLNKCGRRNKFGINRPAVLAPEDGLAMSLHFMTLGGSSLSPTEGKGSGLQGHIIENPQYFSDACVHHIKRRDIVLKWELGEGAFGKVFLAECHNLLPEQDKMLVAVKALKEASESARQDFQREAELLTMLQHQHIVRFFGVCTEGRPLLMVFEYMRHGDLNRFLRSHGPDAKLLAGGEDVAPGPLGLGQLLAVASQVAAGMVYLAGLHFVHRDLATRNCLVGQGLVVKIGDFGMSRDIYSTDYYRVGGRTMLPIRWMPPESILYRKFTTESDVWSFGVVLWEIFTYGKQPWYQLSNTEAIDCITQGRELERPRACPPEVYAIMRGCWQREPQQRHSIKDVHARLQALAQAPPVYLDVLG
endpoint: pIC50
Give bare numbers, as −log10 of the molar value.

Enquiry: Supply pIC50 value. Item: C[C@@H](Nc1ccn2ncc(-c3cnn(CCO)c3)c2n1)c1cc(F)ccc1OCC(F)F
Return: 9.15

----------
Assay: Tmax in Beagle dog at 5 mg/kg, ig measured upto 24 hrs by LC-MS/MS analysis
Assay type: ADME, organism-based, Canis lupus familiaris
Settings: in vivo, po
endpoint: Tmax (min)
Numbers only, in min.

Enquiry: Supply Tmax value. Item: C[C@@H](Nc1ccn2ncc(-c3cnn(CCO)c3)c2n1)c1cc(F)ccc1OCC(F)F
Return: 49.8

----------
Experiment: Cmax in Beagle dog at 5 mg/kg, ig measured upto 24 hrs by LC-MS/MS analysis
Type: ADME, organism-based, Canis lupus familiaris
Parameters: route […], dose 5 mg/kg, time <=24
Details: in vivo, po
endpoint: Cmax (ng/mL)
Answers are plain numbers, in ng/mL.

Enquiry: Supply Cmax value. Item: C[C@@H](Nc1ccn2ncc(-c3cnn(CCO)c3)c2n1)c1cc(F)ccc1OCC(F)F
Return: 1570

----------
Test: AUC(0 to infinity) in Beagle dog at 1 mg/kg, iv measured upto 24 hrs by LC-MS/MS analysis
Assay type: ADME, organism-based, Canis lupus familiaris
Set-up: route intravenous, dose 1 mg/kg, time <=24
Details: in vivo
endpoint: AUC(0-inf) (ng·h/mL)
Numbers only, in ng·h/mL.

Enquiry: Supply AUC(0-inf) value. Item: C[C@@H](Nc1ccn2ncc(-c3cnn(CCO)c3)c2n1)c1cc(F)ccc1OCC(F)F
Return: 2140

----------
Assay: Plasma protein binding in human
Format: ADME, cell-free
Conditions: read-out: PPB (converted)
endpoint: fraction unbound
Give bare numbers.

Enquiry: Supply fraction unbound value. Item: C[C@@H](Nc1ccn2ncc(-c3cnn(CCO)c3)c2n1)c1cc(F)ccc1OCC(F)F
Return: 0.044

----------
Tested on: BaF3
Type: functional, cell-based
Settings: Mus musculus, BaF3, 72 h
endpoint: IC50 (nM)
Numbers only, in nM.

compound=C[C@@H](Nc1ccn2ncc(-c3cnn(CCO)c3)c2n1)c1cc(F)ccc1OCC(F)F numeric_readout=10.9

We next turn to a different compound, shown below.
Enquiry: Supply IC50 value. Item: C[C@@H]1CCc2ncc(F)cc2[C@H]2CCCN2c2ccn3ncc(c3n2)C(=O)N1 [SELITRECTINIB]
Return: 72.6

----------
Test: Clearance in Beagle dog at 1 mg/kg, iv measured upto 24 hrs by LC-MS/MS analysis
Format: ADME, organism-based, Canis lupus familiaris
Settings: in vivo
endpoint: clearance

Enquiry: Supply clearance value. Item: C[C@@H](Nc1ccn2ncc(-c3cnn(CCO)c3)c2n1)c1cc(F)ccc1OCC(F)F
Return: 7.83 mL/min/kg

----------
Experiment: Metabolic stability in human liver microsomes assessed as half life at 1 uM measured upto 90 mins in presence of NADPH regenerating system by LC-MS/MS analysis
Format: ADME, Microsome
Exercise: for every item that follows, state its recorded half-life at 1 µM.
Answers are plain numbers, in min.

structure_smiles_string=C[C@@H](Nc1ccn2ncc(-c3cnn(CCO)c3)c2n1)c1cc(F)ccc1OCC(F)F numeric_readout=315
structure_smiles_string=Cn1cc(-c2cnn3ccc(N4CCC[C@@H]4c4cc(F)ccc4OCC(F)F)nc23)cn1 numeric_readout=8.3
structure_smiles_string=Cn1cc(-c2cnn3ccc(N4CCC[C@@H]4c4cc(F)ccc4F)nc23)cn1 numeric_readout=3

# batch size: 2; output half-life at 1 µM per entry
1. C[C@@H](Nc1ccn2ncc(-c3cnn(C)c3)c2n1)c1cc(F)ccc1OCC(F)F
2. O=C(Nc1cnn2ccc(N3CCC[C@@H]3c3cc(F)ccc3F)nc12)N1CC[C@H](O)C1

Return:
1. 32.4
2. 365

----------
Experiment: Half life in Beagle dog at 5 mg/kg, ig measured upto 24 hrs by LC-MS/MS analysis
Type: ADME, organism-based, Canis lupus familiaris
Conditions: in vivo, po
endpoint: half-life (h)
Give bare numbers, in h.

Enquiry: Supply half-life value. Item: C[C@@H](Nc1ccn2ncc(-c3cnn(CCO)c3)c2n1)c1cc(F)ccc1OCC(F)F
Return: 6.28

----------
Biological target: hERG (KCNH2) (Homo sapiens)
Sequence (Q12809 whole entry): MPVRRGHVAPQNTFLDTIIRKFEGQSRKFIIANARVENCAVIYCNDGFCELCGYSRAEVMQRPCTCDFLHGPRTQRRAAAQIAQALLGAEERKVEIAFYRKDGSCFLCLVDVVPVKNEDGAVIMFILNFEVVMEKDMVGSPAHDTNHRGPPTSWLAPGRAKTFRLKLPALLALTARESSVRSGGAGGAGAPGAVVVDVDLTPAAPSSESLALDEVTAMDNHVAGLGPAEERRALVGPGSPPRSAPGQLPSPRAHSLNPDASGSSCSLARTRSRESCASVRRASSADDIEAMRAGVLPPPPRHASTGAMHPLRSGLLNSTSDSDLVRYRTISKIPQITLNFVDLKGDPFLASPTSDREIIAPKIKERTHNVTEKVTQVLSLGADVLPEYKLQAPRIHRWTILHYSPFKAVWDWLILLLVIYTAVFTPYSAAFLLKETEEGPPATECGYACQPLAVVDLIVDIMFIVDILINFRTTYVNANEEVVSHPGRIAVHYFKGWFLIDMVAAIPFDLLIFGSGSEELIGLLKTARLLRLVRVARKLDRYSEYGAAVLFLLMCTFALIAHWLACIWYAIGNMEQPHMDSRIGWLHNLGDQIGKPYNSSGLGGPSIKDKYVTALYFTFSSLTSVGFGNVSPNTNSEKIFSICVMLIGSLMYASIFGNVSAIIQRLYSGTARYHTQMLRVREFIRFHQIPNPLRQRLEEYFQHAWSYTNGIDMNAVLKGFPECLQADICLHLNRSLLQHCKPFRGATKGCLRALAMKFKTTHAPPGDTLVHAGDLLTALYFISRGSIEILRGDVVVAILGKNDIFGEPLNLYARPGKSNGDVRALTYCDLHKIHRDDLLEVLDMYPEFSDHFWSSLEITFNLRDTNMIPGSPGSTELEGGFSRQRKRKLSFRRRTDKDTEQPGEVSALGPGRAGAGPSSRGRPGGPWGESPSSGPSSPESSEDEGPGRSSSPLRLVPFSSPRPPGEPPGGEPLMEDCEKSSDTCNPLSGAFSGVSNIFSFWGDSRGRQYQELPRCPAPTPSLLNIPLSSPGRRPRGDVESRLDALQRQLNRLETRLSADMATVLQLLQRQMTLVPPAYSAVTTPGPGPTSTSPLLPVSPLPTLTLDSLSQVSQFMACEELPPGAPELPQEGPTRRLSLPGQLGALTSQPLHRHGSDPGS
Test: Inhibition of hERG at 10 uM relative to control
endpoint: inhibition at 10 µM

Enquiry: Lab note: hERG (KCNH2) (Homo sapiens) assay, enter inhibition at 10 µM for C[C@@H](Nc1ccn2ncc(-c3cnn(CCO)c3)c2n1)c1cc(F)ccc1OCC(F)F here
Return: 23%

----------
Assay: Half life in Beagle dog at 1 mg/kg, iv measured upto 24 hrs by LC-MS/MS analysis
Format: ADME, organism-based, Canis lupus familiaris
Settings: in vivo
endpoint: half-life (min)
Answers are plain numbers, in min.

Enquiry: Supply half-life value. Item: C[C@@H](Nc1ccn2ncc(-c3cnn(CCO)c3)c2n1)c1cc(F)ccc1OCC(F)F
Return: 432

Just for reference, ChEMBL document CHEMBL5034031 is where these values come from.
